Attribute: pIC50
Molecular target: hRIPK1 (aa 1-375) fusion protein (Homo sapiens, UniProt Q13546)
Construct: hRIPK1 (aa 1-375) fusion protein
Sequence (Q13546 1-375): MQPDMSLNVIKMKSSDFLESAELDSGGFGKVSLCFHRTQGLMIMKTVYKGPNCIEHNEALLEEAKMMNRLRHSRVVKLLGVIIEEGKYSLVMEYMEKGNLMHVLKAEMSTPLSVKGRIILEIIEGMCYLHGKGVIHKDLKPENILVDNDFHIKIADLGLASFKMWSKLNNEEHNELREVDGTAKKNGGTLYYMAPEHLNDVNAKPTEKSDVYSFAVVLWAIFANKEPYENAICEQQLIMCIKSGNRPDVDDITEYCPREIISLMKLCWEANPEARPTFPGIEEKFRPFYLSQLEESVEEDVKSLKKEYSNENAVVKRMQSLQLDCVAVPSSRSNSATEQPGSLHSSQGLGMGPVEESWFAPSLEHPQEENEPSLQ
Assay: ADP-Glo kinase assay: catalytic activity of RIPK1 (autophosphorylation, conversion of ATP to ADP)
pIC50: −log10 of the molar value.

{"columns": ["COMPOUND STRUCTURE STRING", "pIC50"],
 "data": [
  ["Cc1nc2c(Cl)cc(C[C@H]3CC[C@H](C(=O)N4OCC[C@H]4c4cncc(F)c4)CC3)cn2n1", 7.59],
  ["Cc1ccc([C@@H]2CCON2C(=O)[C@H]2CC[C@H](Cc3cc(C)c4nnc(C)n4c3)CC2)cn1", 7.01],
  ["Cn1cc(C[C@H]2CC[C@H](C(=O)N3OCC[C@H]3c3cncc(C#N)c3)CC2)cn1", 7.46],
  ["N#Cc1cc(F)cc([C@@H]2CCON2C(=O)[C@H]2CC[C@H](Cn3cnc4cc(F)c(C(N)=O)cc43)CC2)c1", 7.36],
  ["NC(=O)c1cc(C[C@H]2CC[C@H](C(=O)N3OCC[C@H]3c3ccc(F)cc3)CC2)ccc1F", 8.00],
  ["O=C([C@H]1CC[C@H](Cn2ccc3ncc(Cl)cc32)CC1)N1OCC[C@H]1c1cc(F)cc(F)c1", 7.60],
  ["Cc1nc(C[C@H]2CC[C@H](C(=O)N3OCC[C@H]3c3cnccn3)CC2)cs1", 7.57],
  ["Cc1cn2ncc(C[C@H]3CC[C@H](C(=O)N4OCC[C@H]4c4csc(C)n4)CC3)cc2n1", 7.19],
  ["N#Cc1cc(F)cc([C@@H]2CCON2C(=O)[C@H]2CC[C@H](Cc3cc(F)cc(CCO)c3)CC2)c1", 7.74],
  ["NC(=O)c1cc2ncn(C[C@H]3CC[C@H](C(=O)N4OCC[C@H]4c4cc(F)cc(F)c4)CC3)c2cc1F", 7.57],
  ["Cc1ccc([C@@H]2CCON2C(=O)[C@H]2CC[C@H](Cc3ccc4c(c3)C(=O)NC4)CC2)cn1", 7.48],
  ["N#Cc1cc(F)cc([C@@H]2CCON2C(=O)[C@H]2CC[C@H](Cn3cnc4cc(C#N)c(F)cc43)CC2)c1", 7.23],
  ["Cc1nc2ccc(C[C@H]3CC[C@H](C(=O)N4OCC[C@H]4c4cc(F)cc(F)c4)CC3)nn2n1", 8.00],
  ["Cc1ncc(C[C@H]2CC[C@H](C(=O)N3OCC[C@H]3c3cc(F)cc(F)c3)CC2)cn1", 7.85],
  ["Cc1ncc(F)cc1C[C@H]1CC[C@H](C(=O)N2OCC[C@H]2c2ccc(F)cc2)CC1", 7.49],
  ["Cc1cn2ncc(C[C@H]3CC[C@H](C(=O)N4OCC[C@H]4c4ccc(F)cc4)CC3)cc2n1", 7.47],
  ["Cc1nc2c(C)cc(C[C@H]3CC[C@H](C(=O)N4OCC[C@H]4c4cc(F)cc(C#N)c4)CC3)cn2n1", 7.77],
  ["COc1cc(C[C@H]2CC[C@H](C(=O)N3OCC[C@H]3c3cncc(F)c3)CC2)cn2nc(C)nc12", 7.59],
  ["Cc1nn(C[C@H]2CC[C@H](C(=O)N3OCC[C@H]3c3cc(F)cc(F)c3)CC2)c2cc(C#N)c(F)cc12", 7.89],
  ["Cc1nc2ccc(C[C@H]3CC[C@H](C(=O)N4OCC[C@H]4c4cc(F)cc(C#N)c4)CC3)cn2n1", 7.66],
  ["N#Cc1cc(F)cc([C@@H]2CCON2C(=O)[C@H]2CC[C@H](Cn3ncc4cc(F)ccc43)CC2)c1", 7.68],
  ["Cc1ccc([C@@H]2CCON2C(=O)[C@H]2CC[C@H](Cc3cc(F)c4nc(C)nn4c3)CC2)cn1", 7.09],
  ["O=C([C@H]1CC[C@H](Cc2cc(F)cc(CO)c2)CC1)N1OCC[C@H]1c1cnccn1", 8.10],
  ["O=C1NCc2ccc(C[C@H]3CC[C@H](C(=O)N4OCC[C@H]4c4cncc(F)c4)CC3)cc21", 7.82],
  ["Cc1c(C#N)ncn1C[C@H]1CC[C@H](C(=O)N2OCC[C@H]2c2cc(F)cc(F)c2)CC1", 7.41],
  ["O=C([C@H]1CC[C@H](Cn2cnc3ccc(F)cc32)CC1)N1OCC[C@H]1c1cc(F)cc(F)c1", 7.62],
  ["N#Cc1cc(F)cc([C@@H]2CCON2C(=O)[C@H]2CC[C@H](Cn3ccc4cc(F)c(C(N)=O)cc43)CC2)c1", 7.77],
  ["N#Cc1cc(F)cc([C@@H]2CCON2C(=O)[C@H]2CC[C@H](Cc3ccc(F)c(C(N)=O)c3)CC2)c1", 7.92],
  ["COc1cncc([C@@H]2CCON2C(=O)[C@H]2CC[C@H](Cn3ncc4ccc(C#N)cc43)CC2)n1", 7.89]
]}

* * *

biological target: hRIPK1 (aa 1-375) fusion protein (Homo sapiens); construct: hRIPK1 (aa 1-375) fusion protein; test: ADP-Glo kinase assay: catalytic activity of RIPK1 (autophosphorylation, conversion of ATP to ADP)
IC50 less than 20 nM is Fulfilled; IC50 greater than or equal to 20 nM is Not fulfilled.

{"columns": ["COMPOUND", "ASSAYED TARGET", "CATEGORY LABEL"],
 "data": [
  ["Cc1ccc(C[C@H]2CC[C@H](C(=O)N3OCC[C@H]3c3cc(F)cc(F)c3)CC2)cc1C(N)=O [compound 132]", "hRIPK1 (aa 1-375) fusion protein (Homo sapiens)", "Fulfilled"],
  ["Cc1ccc([C@@H]2CCON2C(=O)[C@H]2CC[C@H](Cc3ccc4nc(N)nn4c3)CC2)cn1 [compound 391]", "hRIPK1 (aa 1-375) fusion protein (Homo sapiens)", "Not fulfilled"],
  ["CNC(=O)c1ccc(F)c(C[C@H]2CC[C@H](C(=O)N3OCC[C@H]3c3cc(F)cc(C#N)c3)CC2)c1 [compound 177]", "hRIPK1 (aa 1-375) fusion protein (Homo sapiens)", "Fulfilled"],
  ["N#Cc1cc(F)cc([C@@H]2CCON2C(=O)[C@H]2CC[C@H](Cn3ncc4cc(C(N)=O)ccc43)CC2)c1 [compound 72]", "hRIPK1 (aa 1-375) fusion protein (Homo sapiens)", "Not fulfilled"],
  ["Cc1cnc([C@@H]2CCON2C(=O)[C@H]2CC[C@H](Cc3cc(F)cnc3C)CC2)cn1 [compound 316]", "hRIPK1 (aa 1-375) fusion protein (Homo sapiens)", "Not fulfilled"],
  ["Cc1nccn1-c1cc(F)cc(C[C@H]2CC[C@H](C(=O)N3OCC[C@H]3c3cncc(F)c3)CC2)c1 [compound 220]", "hRIPK1 (aa 1-375) fusion protein (Homo sapiens)", "Not fulfilled"],
  ["Cc1cc(C[C@H]2CC[C@H](C(=O)N3OCCC3c3cnccn3)CC2)c(C)cn1 (stereo in doubt) [compound 356]", "hRIPK1 (aa 1-375) fusion protein (Homo sapiens)", "Not fulfilled"],
  ["Cc1ccc(CC23CCC(C(=O)N4OCC[C@H]4c4cc(F)cc(F)c4)(CC2)CC3)cc1C(N)=O [compound 273]", "hRIPK1 (aa 1-375) fusion protein (Homo sapiens)", "Fulfilled"],
  ["N#Cc1cc(F)cc([C@@H]2CCON2C(=O)[C@H]2CC[C@H](Cn3ncc4cc(C#N)c(F)cc43)CC2)c1 [compound 66]", "hRIPK1 (aa 1-375) fusion protein (Homo sapiens)", "Fulfilled"],
  ["N#Cc1cc(F)c2cn(C[C@H]3CC[C@H](C(=O)N4OCC[C@H]4c4cc(F)cc(F)c4)CC3)nc2c1 [compound 35]", "hRIPK1 (aa 1-375) fusion protein (Homo sapiens)", "Not fulfilled"],
  ["Cc1nc2c(F)cc(C[C@H]3CC[C@H](C(=O)N4OCC[C@H]4c4cnccn4)CC3)cn2n1 [compound 340]", "hRIPK1 (aa 1-375) fusion protein (Homo sapiens)", "Not fulfilled"],
  ["O=C([C@H]1CC[C@H](Cn2cc3cc(F)ccc3n2)CC1)N1OCC[C@H]1c1cc(F)cc(F)c1 [compound 57]", "hRIPK1 (aa 1-375) fusion protein (Homo sapiens)", "Not fulfilled"],
  ["Cc1cc([C@@H]2CCON2C(=O)[C@H]2CC[C@H](Cn3cnc4cc(F)c(C#N)cc43)CC2)co1 [compound 39]", "hRIPK1 (aa 1-375) fusion protein (Homo sapiens)", "Not fulfilled"],
  ["Cc1cc2nnc(C)n2cc1C[C@H]1CC[C@H](C(=O)N2OCC[C@H]2c2ccc(F)c(F)c2)CC1 [compound 318]", "hRIPK1 (aa 1-375) fusion protein (Homo sapiens)", "Not fulfilled"],
  ["N#Cc1ccc2cnn(C[C@H]3CC[C@H](C(=O)N4OCC[C@H]4c4cnccn4)CC3)c2c1 [compound 200]", "hRIPK1 (aa 1-375) fusion protein (Homo sapiens)", "Not fulfilled"],
  ["Cc1ccc([C@@H]2CCON2C(=O)[C@H]2CC[C@H](Cc3ccc(C)nn3)CC2)cn1 [compound 387]", "hRIPK1 (aa 1-375) fusion protein (Homo sapiens)", "Not fulfilled"],
  ["Cc1nc2c(C)cc(C[C@H]3CC[C@H](C(=O)N4OCC[C@H]4c4csc(C)n4)CC3)cn2n1 [compound 361]", "hRIPK1 (aa 1-375) fusion protein (Homo sapiens)", "Not fulfilled"],
  ["Cc1nc([C@@H]2CCON2C(=O)[C@H]2CC[C@H](Cn3ncc4ncc(C#N)cc43)CC2)cs1 [compound 199]", "hRIPK1 (aa 1-375) fusion protein (Homo sapiens)", "Fulfilled"],
  ["N#Cc1cc(F)cc([C@@H]2CCON2C(=O)[C@H]2CC[C@H](Cn3cc4ncc(C#N)cc4n3)CC2)c1 [compound 24]", "hRIPK1 (aa 1-375) fusion protein (Homo sapiens)", "Not fulfilled"],
  ["N#Cc1cc(F)cc([C@@H]2CCON2C(=O)[C@H]2CC[C@H](Cn3cc4ccc(C#N)cc4n3)CC2)c1 [compound 30]", "hRIPK1 (aa 1-375) fusion protein (Homo sapiens)", "Not fulfilled"],
  ["Cc1ncc([C@@H]2CCON2C(=O)[C@H]2CC[C@H](Cc3ccc4ncnn4c3)CC2)cc1F [compound 337]", "hRIPK1 (aa 1-375) fusion protein (Homo sapiens)", "Not fulfilled"],
  ["Cc1ncc(C[C@H]2CC[C@H](C(=O)N3OCC[C@H]3c3cc(F)c(C)c(C#N)c3)CC2)cc1C#N [compound 286]", "hRIPK1 (aa 1-375) fusion protein (Homo sapiens)", "Fulfilled"],
  ["Cc1cn2nc(C[C@H]3CC[C@H](C(=O)N4OCC[C@H]4c4cc(F)cc(C#N)c4)CC3)c(C)cc2n1 [compound 292]", "hRIPK1 (aa 1-375) fusion protein (Homo sapiens)", "Fulfilled"],
  ["Cc1cc(C[C@H]2CC[C@H](C(=O)N3OCC[C@H]3c3cnc(C)c(F)c3)CC2)c(C)cn1 [compound 332]", "hRIPK1 (aa 1-375) fusion protein (Homo sapiens)", "Fulfilled"],
  ["N#Cc1cc(F)cc([C@@H]2CCON2C(=O)[C@H]2CC[C@H](Cc3cncnc3)CC2)c1 [compound 247]", "hRIPK1 (aa 1-375) fusion protein (Homo sapiens)", "Not fulfilled"],
  ["Cc1ccc([C@@H]2CCON2C(=O)[C@H]2CC[C@H](Cc3cnn4cc(C)nc4c3)CC2)cn1 [compound 353]", "hRIPK1 (aa 1-375) fusion protein (Homo sapiens)", "Not fulfilled"],
  ["Cc1nn(C[C@H]2CC[C@H](C(=O)N3OCC[C@H]3c3cc(F)cc(C#N)c3)CC2)c2cc(F)c(C#N)cc12 [compound 69]", "hRIPK1 (aa 1-375) fusion protein (Homo sapiens)", "Not fulfilled"]
]}
